The measured values listed here are drawn from PubChem BioAssay (NCATS).

Assay: Cytometric Cell-Based qHTS for Inhibitors of the mTORC1 Signaling Pathway in MEF (Tsc2-/-, p53-/-) Cells (AID 2660);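 note: Tsc2 and p53 null MEFs carrying empty vector with compound for 24 h; percent of cells above a phospho-rpS6 to PI ratio cutoff in each well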
Conditions: mTORC1 pathway cytometry; series mostly up to 38.3 µM
Records with an inconclusive call do not appear. Active and inactive are the calls of the source. Calls come from the whole dose curve; as a rule, active = well fitted curve in the direction sought with a large enough effect; inconclusive = small, poorly fitted or top-dose-only effect, or another doubt; inactive = no such curve, though single readings can be large or run the other way.
result-type: outcome

Here's what some known entries look like.
| molecule | outcome |
| --- | --- |
| COc1ccc2c(c1OC)C(=O)O[C@H]2[C@@H]1c2cc3c(cc2CCN1C)OCO3 | inactive |
| O=c1[nH]oc2c1CCNC2 | inactive |
| CC(C)c1cccc(C(C)C)c1O | inactive |
| O=P1(N(CCCl)CCCl)NCCCO1 (configuration not stated) | inactive |
| CC(NC(C)(C)C)C(=O)c1cccc(Cl)c1 (configuration not stated) | inactive |
| C=C(C)[C@H]1CN[C@H](C(=O)O)[C@H]1CC(=O)O | inactive |
| CC(C)(C)NCC(O)c1ccccc1Cl (configuration not stated) | inactive |
| O=C(CCCN1CCC2(CC1)C(=O)NCN2c1ccccc1)c1ccc(F)cc1 | inactive |

## Task Quote outcome reported for "NCCc1ccc(O)cc1" please.
## Result inactive

## Task Quote outcome reported for CCC1(c2ccc(N)cc2)CCC(=O)NC1=O (configuration not stated) please.
## Result inactive

## Task Quote outcome reported for CN1C(=O)CCS(=O)(=O)C1c1ccc(Cl)cc1 (configuration not stated) please.
## Result inactive

## Task Quote outcome reported for "CCCCC/C=C\C/C=C\C/C=C\C/C=C\CCCC(=O)NCC(=O)O" please.
## Result inactive

====

Settings: Ebola virus entry assay, green channel fluorescence
Results with a measured potency or affinity are listed apart. Calls of active or inactive are those of the source.

| molecule | outcome |
| --- | --- |
| Cc1cc(C)nc(NS(=O)(=O)c2ccc(N)cc2)n1 | inactive |
| C=C(C)[C@H]1CN[C@H](C(=O)O)[C@H]1CC(=O)O | inactive |
| CC(C)C[C@H](NC(=O)CNC(=O)[C@H](Cc1ccc(O)cc1)NC(=O)[C@H](CO)NC(=O)[C@H](Cc1c[nH]c2ccccc12)NC(=O)[C@H](Cc1cnc[nH]1)NC(=O)[C@@H]1CCC(=O)N1)C(=O)N[C@@H](CCCN=C(N)N)C(=O)N1CCC[C@H]1C(=O)NCC(N)=O (stereo in doubt) | inactive |

====

Details: Ebola virus entry assay, ratio channel readout
Activity calls are given as the source filed them.

| compound | outcome |
| --- | --- |
| C[C@@H]1[C@H](O)[C@@H](C)/C=C/C=C\C=C\C=C\C=C\C=C\C=C\[C@H](O[C@@H]2O[C@H](C)[C@@H](O)[C@H](N)[C@@H]2O)C[C@@H]2O[C@](O)(C[C@@H](O)C[C@@H](O)[C@H](O)CC[C@@H](O)C[C@@H](O)CC(=O)O[C@H]1C)C[C@H](O)[C@H]2C(=O)O (stereo in doubt) | inactive |
| O=C(O)CCCc1ccc(N(CCCl)CCCl)cc1 | inactive |
| O=C1CN(/N=C/c2ccc([N+](=O)[O-])o2)C(=O)N1 | inactive |

====

Experiment: Quantitative High-Throughput drug screen in 47 multiple myeloma cell lines against the NCATS MIPE library collection: H1112_PLB cell viability assay (AID 1918967; note: nearly all actives have a fitted effect of over 30% in size)
Conditions: H1112 myeloma cells viability, ATP luminescence, 48 h; series mostly up to 45.8 µM
Records with an inconclusive call do not appear. The source made the active and inactive calls. Calls come from the whole dose curve; as a rule, active = well fitted cell-killing curve with a large enough effect; inconclusive = small, poorly fitted or top-dose-only effect, or effect the other way; inactive = no such curve, though single readings can be large or run the other way.
Your answer must be one of the following: yes for active, no for inactive

## Task GET /call?item= CN1C(=O)CCS(=O)(=O)C1c1ccc(Cl)cc1 (stereo unspecified) returns the recorded outcome of this test.
## Result yes

## Task GET /call?item= O=P1(N(CCCl)CCCl)NCCCO1 (stereo unspecified) returns the recorded outcome of this test.
## Result no

## Task GET /call?item= "C[C@]12CC[C@@H]3c4ccc(OC(=O)N(CCCl)CCCl)cc4CC[C@H]3[C@@H]1CC[C@@H]2OP(=O)(O)O" returns the recorded outcome of this test.
## Result no

## Task GET /call?item= CCC1(c2ccc(N)cc2)CCC(=O)NC1=O (stereo unspecified) returns the recorded outcome of this test.
## Result no

## Task GET /call?item= "O=C(O)CCCc1ccc(N(CCCl)CCCl)cc1" returns the recorded outcome of this test.
## Result no

## Task GET /call?item= "CC(C)C[C@H](CN)CC(=O)O" returns the recorded outcome of this test.
## Result no

====

Experiment: Cell Viability - LYMP2-010 (AID 981);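 note: cells exposed to compound for 24 hours at 37 °C; nearly all actives have a fitted effect of over 55% in size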
Conditions: LYMP2-010 lymphoblastoid cell viability, qHTS; series mostly up to 92.2 µM
Inconclusive results are not listed. Active and inactive are the calls of the source. Calls come from the whole dose curve; as a rule, active = well fitted cell-killing curve with a large enough effect; inconclusive = small, poorly fitted or top-dose-only effect; inactive = flat fitted curve, though single readings scatter.
Your answer must be one of the following: active, inactive

## Task GET /call?item= "Nc1ccccc1" returns the recorded outcome of this test.
## Result inactive

## Task GET /call?item= O=P1(N(CCCl)CCCl)NCCCO1 (centres undefined) returns the recorded outcome of this test.
## Result inactive

## Task GET /call?item= "Oc1ccc(Cl)cc1" returns the recorded outcome of this test.
## Result inactive

## Task GET /call?item= "O=C(O)CCCc1ccc(N(CCCl)CCCl)cc1" returns the recorded outcome of this test.
## Result active

## Task GET /call?item= "NCCc1ccc(O)cc1" returns the recorded outcome of this test.
## Result inactive

## Task GET /call?item= "Clc1ccc(C(c2ccc(Cl)cc2)C(Cl)(Cl)Cl)cc1" returns the recorded outcome of this test.
## Result inactive

## Task GET /call?item= "CCCC(C)(COC(N)=O)COC(N)=O" returns the recorded outcome of this test.
## Result inactive

## Task GET /call?item= "C[C@]12CCC(=O)C=C1CC[C@@H]1[C@@H]2CC[C@]2(C)C(=O)CC[C@@H]12" returns the recorded outcome of this test.
## Result inactive

## Task GET /call?item= "COP(=S)(OC)Oc1ccc(SC)c(C)c1" returns the recorded outcome of this test.
## Result inactive

====

Assay: qHTS for Inhibitors of the Functional Ribonucleoprotein Complex (vRNP) of Lassa (LASV) Arenavirus: Viability assay - alamar blue signal for LASV Primary Screen (AID 1347083); note: nearly all actives have a fitted effect of over 80% in size
Conditions: cell viability, alamar blue fluorescence (LASV minigenome counter-screen); series mostly up to 57.5 µM
Results filed as inconclusive are left out. Activity calls are given as the source filed them. Calls come from the whole dose curve; tested in HEK293 reporter line.
result-type: activity change, negative = reduced viability

| compound | obs-value |
| --- | --- |
| CO[C@@]1(NC(=O)Cc2cccs2)C(=O)N2C(C(=O)O)=C(COC(N)=O)CS[C@@H]21 | inactive |
| CCc1cccc(CC)c1NC(=O)CN(CC(=O)O)CC(=O)O | inactive |
| NCC(=O)CCC(=O)O | inactive |
| CCC1=C(C)CN(C(=O)NCCc2ccc(S(=O)(=O)NC(=O)NC3CCC(C)CC3)cc2)C1=O (stereo unspecified) | inactive |
| O=C(O)CN(CCN(CC(=O)O)CC(=O)O)CCN(CC(=O)O)CC(=O)O | inactive |

Next compound, please.
## Task Quote activity change, negative = reduced viability reported for "CC[N+](CC)(CCNC(=O)C(=O)NCC[N+](CC)(CC)Cc1ccccc1Cl)Cc1ccccc1Cl" please.
## Result inactive

====

Experiment: Cell Viability - HUV-EC-C (AID 542);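 note: cells exposed to compound for 40 hours; nearly all actives have a fitted effect of over 35% in size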
Settings: HUV-EC-C endothelial cell viability, qHTS; series mostly up to 92.2 µM
Results filed as inconclusive are left out. Calls of active or inactive are those of the source. Calls come from the whole dose curve; as a rule, active = well fitted cell-killing curve with a large enough effect; inconclusive = small, poorly fitted or top-dose-only effect, or effect the other way; inactive = flat fitted curve, though single readings scatter.
Your answer must be one of the following: yes (active), no (inactive)

## Task GET /call?item= "CN1C[C@H](C(=O)N[C@]2(C)O[C@@]3(O)[C@@H]4CCCN4C(=O)[C@H](Cc4ccccc4)N3C2=O)C=C2c3cccc4[nH]cc(c34)C[C@H]21" returns the recorded outcome of this test.
## Result no

## Task GET /call?item= "C[C@]1(O)CC[C@H]2[C@@H]3CCC4=CC(=O)CC[C@]4(C)[C@@]3(F)[C@@H](O)C[C@@]21C" returns the recorded outcome of this test.
## Result no

## Task GET /call?item= "Nc1ccccc1C(=O)O" returns the recorded outcome of this test.
## Result no

## Task GET /call?item= CCOC(=O)CC(SP(=S)(OC)OC)C(=O)OCC (stereo not given) returns the recorded outcome of this test.
## Result no

## Task GET /call?item= "C[C@]12CCC(=O)C=C1CC[C@@H]1[C@@H]2CC[C@]2(C)C(=O)CC[C@@H]12" returns the recorded outcome of this test.
## Result no

## Task GET /call?item= "COc1cc(OC)c(OC)cc1C=O" returns the recorded outcome of this test.
## Result no

## Task GET /call?item= "Clc1ccc(C(c2ccc(Cl)cc2)C(Cl)(Cl)Cl)cc1" returns the recorded outcome of this test.
## Result yes

## Task GET /call?item= "Nc1ccccc1" returns the recorded outcome of this test.
## Result no

## Task GET /call?item= "O=C(O)CCCc1ccc(N(CCCl)CCCl)cc1" returns the recorded outcome of this test.
## Result no

## Task GET /call?item= "NCCc1ccc(O)cc1" returns the recorded outcome of this test.
## Result no
